The origin of these recorded values is paper PMC6149824.

method_description: cytotoxicity test (MTT) on NIH/3T3 cells
Type: cell-based, mouse
cond: mouse, NIH/3T3 mouse embryonic fibroblast cells (ATCC CRL-1658); MTT assay, 1000 µM to 0.316 µM; read-out: IC50 (cytotoxic activity against NIH/3T3 cell line)
quantity_name: pIC50
Numbers only, as −log10 of the molar value.

[Q] Specify pIC50 for COc1ccc2sc(SCC(=O)NN=Cc3ccc([N+](=O)[O-])s3)nc2c1 [Compound 3e] and stop.
[A] 4.72

---

Sequence of the target: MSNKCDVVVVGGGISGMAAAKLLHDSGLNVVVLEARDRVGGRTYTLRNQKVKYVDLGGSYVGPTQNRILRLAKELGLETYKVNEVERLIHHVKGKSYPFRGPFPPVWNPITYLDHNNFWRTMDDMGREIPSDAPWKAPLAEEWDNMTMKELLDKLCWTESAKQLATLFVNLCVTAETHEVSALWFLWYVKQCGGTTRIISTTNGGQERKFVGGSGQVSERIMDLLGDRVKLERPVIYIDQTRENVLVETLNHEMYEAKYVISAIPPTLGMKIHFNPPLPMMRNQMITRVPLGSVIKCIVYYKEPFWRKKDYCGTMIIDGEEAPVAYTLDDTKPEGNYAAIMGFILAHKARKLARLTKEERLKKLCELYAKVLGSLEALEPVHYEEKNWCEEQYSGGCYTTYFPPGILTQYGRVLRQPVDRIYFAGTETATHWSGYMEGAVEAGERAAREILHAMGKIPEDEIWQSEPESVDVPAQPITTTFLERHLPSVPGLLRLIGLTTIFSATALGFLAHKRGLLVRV
quantity_name: pKi
One number for each entry, as −log10 of the molar value.

[Q] Specify pKi for COc1ccc2sc(SCC(=O)NN=Cc3ccc([N+](=O)[O-])s3)nc2c1 and stop.
[A] 7.21

---

measured_target: hMAO-B (Homo sapiens, UniProt P27338)
method_description: in vitro fluorometric hMAO-B inhibition assay (Amplex Red)
Format: biochemical
cond: 10^−4 M; read-out: MAO B Inhibition %
Would you mind labelling by inhibition at 100 µM? At or over 30% is rule met, under is rule not met.

Would you please look over these solved cases?
[
  {
    "compound_structure": "COc1ccc2sc(SCC(=O)NN=Cc3cccs3)nc2c1",
    "measured_target": "hMAO-B (Homo sapiens, UniProt P27338)",
    "class": "rule met"
  },
  {
    "compound_structure": "COc1ccc2sc(SCC(=O)NN=Cc3ccc(Br)s3)nc2c1",
    "measured_target": "hMAO-B (Homo sapiens, UniProt P27338)",
    "class": "rule not met"
  },
  {
    "compound_structure": "COc1ccc2sc(SCC(=O)NN=Cc3ccc([N+](=O)[O-])s3)nc2c1",
    "measured_target": "hMAO-B (Homo sapiens, UniProt P27338)",
    "class": "rule met"
  }
]

[Q] Kindly determine if inhibition at 100 µM recorded for COc1ccc2sc(SCC(=O)NN=Cc3ccc([N+](=O)[O-])o3)nc2c1 is above or exactly 30%.
[A] rule met

[Q] Kindly determine if inhibition at 100 µM recorded for COc1ccc2sc(SCC(=O)NN=Cc3sccc3C)nc2c1 is above or exactly 30%.
[A] rule not met

[Q] Kindly determine if inhibition at 100 µM recorded for COc1ccc2sc(SCC(=O)NN=Cc3ccco3)nc2c1 is above or exactly 30%.
[A] rule met

[Q] Kindly determine if inhibition at 100 µM recorded for COc1ccc2sc(SCC(=O)NN=Cc3cccnc3)nc2c1 is above or exactly 30%.
[A] rule not met

[Q] Kindly determine if inhibition at 100 µM recorded for COc1ccc2sc(SCC(=O)NN=Cc3ccc(C)o3)nc2c1 is above or exactly 30%.
[A] rule not met

[Q] Kindly determine if inhibition at 100 µM recorded for COc1ccc2sc(SCC(=O)NN=Cc3ccc(C)s3)nc2c1 is above or exactly 30%.
[A] rule not met

---

measured_target: hMAO-B (Homo sapiens)
method_description: in vitro fluorometric hMAO-B inhibition assay (Amplex Red)
Assay type: biochemical
cond: 10^−3 M; read-out: MAO B Inhibition %
quantity_name: inhibition at 1000 µM (%)
Give bare numbers, in %.

Below are worked cases with known answers.
[
  {
    "compound_structure": "COc1ccc2sc(SCC(=O)NN=Cc3sccc3C)nc2c1",
    "reported_value": 30.5
  },
  {
    "compound_structure": "COc1ccc2sc(SCC(=O)NN=Cc3ccc(Br)s3)nc2c1",
    "reported_value": 24
  },
  {
    "compound_structure": "COc1ccc2sc(SCC(=O)NN=Cc3ccc([N+](=O)[O-])s3)nc2c1",
    "reported_value": 87.3
  },
  {
    "compound_structure": "COc1ccc2sc(SCC(=O)NN=Cc3ccc(C)o3)nc2c1",
    "reported_value": 18.2
  }
]

// below: inhibition at 1000 µM requested for another compound
[Q] Specify inhibition at 1000 µM for COc1ccc2sc(SCC(=O)NN=Cc3ccncc3)nc2c1 and stop.
[A] 34.6

---

measured_target: hMAO-B (Homo sapiens)
method_description: in vitro fluorometric hMAO-B inhibition assay (Amplex Red)
Assay type: biochemical
cond: 10^−3 M; read-out: MAO B Inhibition %
quantity_name: inhibition at 1000 µM (%)
Answers are plain numbers, in %.

[
  {
    "compound_structure": "COc1ccc2sc(SCC(=O)NN=Cc3cccs3)nc2c1",
    "inhibition at 1000 µM / %": 60.4
  }
]

For each of the items listed, what is its inhibition at 1000 µM?
1. COc1ccc2sc(SCC(=O)NN=Cc3ccco3)nc2c1
2. COc1ccc2sc(SCC(=O)NN=Cc3cccnc3)nc2c1
3. COc1ccc2sc(SCC(=O)NN=Cc3ccc([N+](=O)[O-])o3)nc2c1
4. COc1ccc2sc(SCC(=O)NN=Cc3ccc(C)s3)nc2c1

[A]
75.7
32
82.6
25.8

---

measured_target: hMAO-A (Homo sapiens)
Sequence (P21397 1-527): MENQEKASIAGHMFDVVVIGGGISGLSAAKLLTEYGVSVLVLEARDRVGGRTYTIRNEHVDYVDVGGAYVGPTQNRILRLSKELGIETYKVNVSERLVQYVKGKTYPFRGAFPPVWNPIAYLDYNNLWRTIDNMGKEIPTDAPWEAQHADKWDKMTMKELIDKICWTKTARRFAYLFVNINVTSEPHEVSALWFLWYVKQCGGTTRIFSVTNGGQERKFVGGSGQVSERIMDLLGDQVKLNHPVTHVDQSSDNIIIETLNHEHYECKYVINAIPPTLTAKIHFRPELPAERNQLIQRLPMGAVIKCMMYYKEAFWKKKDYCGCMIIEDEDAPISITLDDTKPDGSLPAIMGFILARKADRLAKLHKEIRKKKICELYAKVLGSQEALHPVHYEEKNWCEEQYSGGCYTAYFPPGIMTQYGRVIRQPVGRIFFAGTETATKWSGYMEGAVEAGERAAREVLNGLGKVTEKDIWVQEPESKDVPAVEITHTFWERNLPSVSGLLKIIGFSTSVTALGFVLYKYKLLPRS
method_description: in vitro fluorometric hMAO-A inhibition assay (Amplex Red)
Assay type: biochemical
cond: 10^−4 M; read-out: MAO A Inhibition %
quantity_name: inhibition at 100 µM (%)
Answers are plain numbers, in %.

[
  {
    "molecule": "COc1ccc2sc(SCC(=O)NN=Cc3ccncc3)nc2c1",
    "measured_target": "hMAO-A (Homo sapiens)",
    "reported_value": 17.3
  },
  {
    "molecule": "COc1ccc2sc(SCC(=O)NN=Cc3ccc([N+](=O)[O-])s3)nc2c1",
    "measured_target": "hMAO-A (Homo sapiens)",
    "reported_value": 18.6
  },
  {
    "molecule": "COc1ccc2sc(SCC(=O)NN=Cc3ccc([N+](=O)[O-])o3)nc2c1",
    "measured_target": "hMAO-A (Homo sapiens)",
    "reported_value": 21.3
  },
  {
    "molecule": "COc1ccc2sc(SCC(=O)NN=Cc3ccco3)nc2c1",
    "measured_target": "hMAO-A (Homo sapiens)",
    "reported_value": 18.3
  },
  {
    "molecule": "COc1ccc2sc(SCC(=O)NN=Cc3ccc(C)s3)nc2c1",
    "measured_target": "hMAO-A (Homo sapiens)",
    "reported_value": 10.8
  }
]

For each of the items listed, what is its inhibition at 100 µM?
1. COc1ccc2sc(SCC(=O)NN=Cc3cccs3)nc2c1
2. O=C(NCCN1CCOCC1)c1ccc(Cl)cc1 [Moclobemide, reference compound]
3. COc1ccc2sc(SCC(=O)NN=Cc3ccc(C)o3)nc2c1
4. COc1ccc2sc(SCC(=O)NN=Cc3ccc(Br)s3)nc2c1

[A]
[19, 77.9, 11.1, 12.7]

For each of the items listed, what is its inhibition at 100 µM?
1. COc1ccc2sc(SCC(=O)NN=Cc3sccc3C)nc2c1
2. COc1ccc2sc(SCC(=O)NN=Cc3cccnc3)nc2c1

[A]
[20.4, 10.6]
